# Method notes: Induction of apoptosis in human HaCaT cells assessed as viable cells at 40 nM after 24 hrs by Annexin V/propidium iodide-staining based flow cytometry (reference value: 95.63 +/- 3.83%)
# Type: cell-based
# Reported conditions: read-out: Activity
Measured metric: viability at 24 h, 0.04 µM
Be sure to follow the number with its unit.

# viability at 24 h, 0.04 µM of COc1cccc2c1C(=O)c1c(O)c3c(c(O)c1C2=O)C[C@@](O)(C(=O)CO)C[C@@H]3O[C@H]1C[C@H](N)[C@H](O)[C@H](C)O1 [DOXORUBICIN] = 78.1%

----------
# Tested on: HaCaT
# Method notes: Cytotoxicity against human HaCaT cells assessed as reduction in cell viability after 72 hrs by MTT assay
# Format: cell-based
Would you mind telling me the reported pIC50 of each entry?
Note on pIC50: it is the negative log10 of concentration, concentration in mol/L.

# pIC50 of COc1cccc2c1C(=O)c1c(O)c3c(c(O)c1C2=O)C[C@@](O)(C(=O)CO)C[C@@H]3O[C@H]1C[C@H](N)[C@H](O)[C@H](C)O1 [DOXORUBICIN] = 7.52

# pIC50 of COC(=O)/C=C/c1cc(O)ccc1O = 5.01

# pIC50 of COC(=O)/C=C/C1(O)C=CC(=O)C=C1 = 5.39

# pIC50 of COC(=O)/C=C/c1ccc(O)cc1 [METHYL P-HYDROXYCINNAMATE] = 3.51

----------
# System: A549
# Method notes: Cytotoxicity against human A549 cells assessed as reduction in cell viability after 72 hrs by MTT assay
# Assay type: functional, cell-based
# Reported conditions: A549, 72 h
Measured metric: IC50 (µM)
Numeric only. Scale: µM

# IC50 of COC(=O)/C=C/c1ccc(O)cc1 [METHYL P-HYDROXYCINNAMATE] = 323

# IC50 of COC(=O)/C=C/c1cc(O)ccc1O = 4.14

# IC50 of COC(=O)/C=C/C1(O)C=CC(=O)C=C1 = 4.32

# IC50 of COc1cccc2c1C(=O)c1c(O)c3c(c(O)c1C2=O)C[C@@](O)(C(=O)CO)C[C@@H]3O[C@H]1C[C@H](N)[C@H](O)[C@H](C)O1 = 0.55

----------
Would you mind telling me the reported pIC50 of each entry?
# Test system: SiHa
# Method notes: Cytotoxicity against human SiHa cells assessed as reduction in cell viability after 72 hrs by MTT assay
# Type: functional, cell-based
Note on pIC50: it is the negative log10 of concentration, concentration in mol/L.

# pIC50 of COc1cccc2c1C(=O)c1c(O)c3c(c(O)c1C2=O)C[C@@](O)(C(=O)CO)C[C@@H]3O[C@H]1C[C@H](N)[C@H](O)[C@H](C)O1 = 6.12

# pIC50 of COC(=O)/C=C/C1(O)C=CC(=O)C=C1 = 5.05

----------
# Test system: NCI-H661
# Method notes: Cytotoxicity against human NCI-H661 cells assessed as reduction in cell viability after 72 hrs by MTT assay
# Type: functional, cell-based
# Reported conditions: NCI-H661, 72 h
Would you mind telling me the reported IC50 of each entry?
Numeric only. Scale: nM

# IC50 of COc1cccc2c1C(=O)c1c(O)c3c(c(O)c1C2=O)C[C@@](O)(C(=O)CO)C[C@@H]3O[C@H]1C[C@H](N)[C@H](O)[C@H](C)O1 = 350

# IC50 of COC(=O)/C=C/c1cc(O)ccc1O = 4190

# IC50 of COC(=O)/C=C/c1ccc(O)cc1 [METHYL P-HYDROXYCINNAMATE] = 289000

# IC50 of COC(=O)/C=C/C1(O)C=CC(=O)C=C1 = 1440
